System: N1E-115
Method description: Inhibition of N1E-115 cells Kv channels
Format: functional, cell-based
Experimental parameters: Mus musculus
Measurement type: IC50 (µM)

> print(dat)
                                   smiles  recorded.value
1  COc1ccc2c(c1)c1c(c(=O)n2C)C=CC(C)(C)O1              31
2   COc1ccc2c(c1)c1c(c(=O)n2C)CCC(C)(C)O1              42
3             COc1cc2nc3occc3c(OC)c2cc1OC             200
4     COc1ccc2c(c1)c1oc(C(C)C)cc1c(=O)n2C              38
